Origin of measurements: paper PMC7588595

# experimental-target: human AspH (His6-AspH315–758) (Homo sapiens, UniProt Q12797)
# Construct: N-Terminally His6-tagged human AspH315–758 (His6-AspH315–758) was produced in Escherichia coli BL21 (DE3) cells; made in house; host or cells: Escherichia coli BL21 (DE3), pET-28a(+) vector
# assay-notes: SPE-MS AspH inhibition assay (hFX-CP101-119 substrate hydroxylation)
# Format: biochemical
# experimental-parameters: AspH-inhibitor screening, 384-well Plate 1, substrate conversion
readout: Plate 1 (% conversion) (%)
Kindly answer with a numeric value in %, unit omitted.

c1ccc2c(CCNc3ccc(Nc4ccncc4)cc3)c[nH]c2c1 [JNJ 26854165 (Serdemetan)]; 34.89
CC(C)Cn1cnc2c(N)nc3ccccc3c21; 47.98
CN1CCN(c2ccc3nc(-c4c(N)c5c(F)cccc5[nH]c4=O)[nH]c3c2)CC1; 56.73
C[C@]12CC[C@@H]3c4ccc(O)cc4C[C@@H](CCCCCCCCC[S+]([O-])CCCC(F)(F)C(F)(F)F)[C@H]3[C@@H]1CC[C@@H]2O (stereo partly drawn); 30.96
CO[C@@H](C(=O)N1Cc2[nH]nc(NC(=O)c3ccc(N4CCN(C)CC4)cc3)c2C1)c1ccccc1; 47.72
CN(C)c1nc(N(C)C)nc(N(C)C)n1; 48.22
CNC(=O)c1ccccc1Sc1ccc2c(/C=C/c3ccccn3)n[nH]c2c1; 49.48
CO[C@@H]1[C@H](N(C)C(=O)c2ccccc2)C[C@H]2O[C@]1(C)n1c3ccccc3c3c4c(c5c6ccccc6n2c5c31)C(=O)NC4; 7.13
COc1c2occc2cc2ccc(=O)oc12; 49.54
CC(C)(C)NC(=O)[C@H]1CC[C@H]2[C@@H]3CC[C@H]4NC(=O)C=C[C@]4(C)[C@H]3CC[C@]12C [Finasteride]; 51.25

Req: Return Plate 1 (% conversion) (reported value) for this compound: "COCCNCc1ccc(-c2cc3nccc(Oc4ccc(NC(=S)NC(=O)Cc5ccc(F)cc5)cc4F)c3s2)nc1"
Resp: 15.34

Req: Retrieve Plate 1 (% conversion) measured for Cl.N[C@@H](Cc1ccc(N(CCCl)CCCl)cc1)C(=O)O [Melphalan hydrochloride] and print it.
Resp: 45.95

Req: Report measured Plate 1 (% conversion); entry is "CO[C@H]1C[C@@H]2CC[C@@H](C)[C@@](O)(O2)C(=O)C(=O)N2CCCC[C@H]2C(=O)O[C@H]([C@H](C)C[C@@H]2CC[C@@H](OC(=O)C(C)(CO)CO)[C@H](OC)C2)CC(=O)[C@H](C)/C=C(\C)[C@@H](O)[C@@H](OC)C(=O)[C@H](C)C[C@H](C)/C=C/C=C/C=C/1C"
Resp: 33.23

Req: Report Plate 1 (% conversion) for "Cc1c(C(=O)Nc2ccc(N3C[C@@H](C)O[C@@H](C)C3)nc2)cccc1-c1ccc(OC(F)(F)F)cc1"
Resp: 50.95

Req: // fetch Plate 1 (% conversion) given entry "CO[C@H]1C(=O)[C@]2(C)[C@@H](OC)C[C@H]3OC[C@@]3(OC(C)=O)[C@H]2[C@H](OC(=O)c2ccccc2)[C@]2(O)C[C@H](OC(=O)[C@H](O)[C@@H](NC(=O)OC(C)(C)C)c3ccccc3)C(C)=C1C2(C)C"
Resp: 53.80

====

Each entry below carries its recorded Plate 1-duplicate (% inhibition).
# experimental-target: human AspH (His6-AspH315–758) (Homo sapiens, UniProt Q12797)
# Construct: N-Terminally His6-tagged human AspH315–758 (His6-AspH315–758) was produced in Escherichia coli BL21 (DE3) cells; made in house; host or cells: Escherichia coli BL21 (DE3), pET-28a(+) vector
# Sequence (Q12797 315-758): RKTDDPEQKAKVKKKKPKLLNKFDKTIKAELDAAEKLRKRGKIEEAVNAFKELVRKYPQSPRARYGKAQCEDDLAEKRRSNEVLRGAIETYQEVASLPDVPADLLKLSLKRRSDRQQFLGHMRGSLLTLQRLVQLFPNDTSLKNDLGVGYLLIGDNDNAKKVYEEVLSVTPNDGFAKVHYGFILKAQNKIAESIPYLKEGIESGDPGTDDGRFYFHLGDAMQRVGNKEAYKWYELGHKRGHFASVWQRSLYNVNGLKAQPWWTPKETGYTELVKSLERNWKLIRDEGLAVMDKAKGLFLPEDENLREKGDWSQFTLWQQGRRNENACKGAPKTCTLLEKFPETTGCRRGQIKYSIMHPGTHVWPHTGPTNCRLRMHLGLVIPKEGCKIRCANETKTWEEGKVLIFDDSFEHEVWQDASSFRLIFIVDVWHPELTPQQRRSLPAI
# assay-notes: SPE-MS AspH inhibition assay (hFX-CP101-119 substrate hydroxylation)
# Type: biochemical
# experimental-parameters: AspH-inhibitor screening, Plate 1-duplicate
Structures can show the parent of a compound that is named as a salt.
Give your result as the value with the unit written after it.

O=c1[nH]cc(F)c(=O)[nH]1; 5.36%
CCN(CC)CCOc1ccc(C(=C(Cl)c2ccccc2)c2ccccc2)cc1 [Clomifene citrate]; 68.69%
Cn1cc(-c2[nH]c3cc(NC(=O)[C@H](N)C4CCCCC4)cc4c3c2C=NNC4=O)cn1; -54.03%

Req: Tell us which Plate 1-duplicate (% inhibition) value is on record for CC1(C)CNc2cc(NC(=O)c3cccnc3NCc3ccncc3)ccc21.O=P(O)(O)O.O=P(O)(O)O [Motesanib Diphosphate (AMG-706)]
Resp: 26.44%

====

# experimental-target: human AspH (His6-AspH315–758) (Homo sapiens)
# Construct: N-Terminally His6-tagged human AspH315–758 (His6-AspH315–758) was produced in Escherichia coli BL21 (DE3) cells; made in house; host or cells: Escherichia coli BL21 (DE3), pET-28a(+) vector
# assay-notes: SPE-MS AspH inhibition assay (hFX-CP101-119 substrate hydroxylation)
# Type: biochemical
Consider the following molecules and their measured Plate 1-duplicate (% conversion) readings.
Field format: number, assumed %, no unit text.

Req: Give reported Plate 1-duplicate (% conversion) value for O=P1(N(CCCl)CCCl)NCCCO1 (centres unmarked) [Cyclophosphamide]
Resp: 48.17

Req: Give reported Plate 1-duplicate (% conversion) value for CCN(CC)CCCC(C)Nc1ccnc2cc(Cl)ccc12 (centres unmarked) [Chloroquine diphosphate]
Resp: 46.45

Req: Annotate the molecule C[C@]12C=CC(=O)C=C1CC[C@@H]1[C@@H]2[C@@H](O)C[C@@]2(C)[C@H]1CC[C@]2(O)C(=O)CO [Prednisolone] with its measured Plate 1-duplicate (% conversion).
Resp: 46.08

Req: Return value of Plate 1-duplicate (% conversion) for input Oc1ncc(N(CCCl)CCCl)c(O)n1 [Uracil mustard] , no commentary.
Resp: 46.70

Req: Output Plate 1-duplicate (% conversion) of O=[As]O[As]=O (centres unmarked) [Arsenic(III) oxide]
Resp: 49.86

Req: In one line, give reported Plate 1-duplicate (% conversion) of the entry CC[C@H](CO)Nc1nc(NCc2ccccc2)c2ncn(C(C)C)c2n1 [Roscovitine_Selicilib] .
Resp: 50.17

Req: Note Plate 1-duplicate (% conversion) for the molecule shown: C[C@]12CC[C@@H]3c4ccc(OC(=O)N(CCCl)CCCl)cc4CC[C@H]3[C@@H]1CC[C@@H]2OP(=O)(O)O [Estramustine sodium phosphate]
Resp: 20.11

Req: Dear colleague, please send me the reported Plate 1-duplicate (% conversion) for O=P1(N(CCCl)CCCl)NCCCO1 (centres unmarked) [Clafen (Cyclophosphamide, Endoxan)] when you can.
Resp: 50.72

Req: Given the molecule CS(=O)(=O)CCNCc1ccc(-c2ccc3ncnc(Nc4ccc(OCc5cccc(F)c5)c(Cl)c4)c3c2)o1.Cc1ccc(S(=O)(=O)O)cc1.Cc1ccc(S(=O)(=O)O)cc1 [Lapatinib, di-p-toluenesulfonate salt] , write its reported Plate 1-duplicate (% conversion).
Resp: 62.65

Req: Provide only the value of recorded Plate 1-duplicate (% conversion) for C1CN1c1nc(N2CC2)nc(N2CC2)n1 [Triethylenemelamine]
Resp: 50.74

Req: Tell me measured Plate 1-duplicate (% conversion) for Cl.c1ccc(C2CN3CCSC3=N2)cc1 (centres unmarked) [Tetramisole HCl] please.
Resp: 48.14

====

Recorded Plate 1-duplicate (% conversion) for the following molecules
# experimental-target: human AspH (His6-AspH315–758) (Homo sapiens)
# Construct: N-Terminally His6-tagged human AspH315–758 (His6-AspH315–758) was produced in Escherichia coli BL21 (DE3) cells; made in house; host or cells: Escherichia coli BL21 (DE3), pET-28a(+) vector
# assay-notes: SPE-MS AspH inhibition assay (hFX-CP101-119 substrate hydroxylation)
# Type: biochemical
# experimental-parameters: AspH-inhibitor screening, Plate 1-duplicate, substrate conversion
Where a name gives a salt, the structure may show the parent alone.
// note: answer is a bare numeric in %

CC(C)n1cnc2c(NCCc3ccc(O)cc3)nc(-c3csc4ccccc34)nc21.Cl [SR1 HCl]; 30.39
CCc1c(C(=O)C(N)=O)c2c(OCC(=O)O)cccc2n1Cc1ccccc1; 48.01
C[C@@H]1CCN(C(=O)CC#N)C[C@@H]1N(C)c1ncnc2[nH]ccc12; 49.00

Req: Output reported Plate 1-duplicate (% conversion) of the molecule CC(=O)[C@]1(O)Cc2c(O)c3c(c(O)c2[C@@H](O[C@H]2C[C@H](N)[C@H](O)[C@H](C)O2)C1)C(=O)c1ccccc1C3=O [Idarubicin HCl] on human AspH (His6-AspH315–758) (Homo sapiens).
Resp: 49.42
